# Assay Summary: xn = mol fraction of the nth substance listed
# Cond: 298.15 K; 101.32 kPa; Liquid; x2 = 0.5
Numbers after ± are expanded uncertainties.
viscosity by entry:

CCCCCl [1-chlorobutane] + CCCCO: 0.798 ± 0.011 mPa·s
CCCCCl [1-chlorobutane] + CCO: 0.543 ± 0.009 mPa·s
CCCCCl [1-chlorobutane] + CCCO: 0.67 ± 0.01 mPa·s

Okay, now this molecule:
INPUT: Entry CCCCCl [1-chlorobutane] + CO has what viscosity?
OUTPUT: 0.45 ± 0.008 mPa·s

----------
# Assay Summary: xn = mol fraction of the nth substance listed
# Cond: 298.15 K; 101.32 kPa; Liquid; x2 = 0.95
The following compounds are shown together with reported viscosity values.
Numeric answer only, unit mPa·s assumed.

CCCCCl [1-chlorobutane] + CCCCO: 2.328
CCCCCl [1-chlorobutane] + CO: 0.532
CCCCCl [1-chlorobutane] + CCO: 0.994

INPUT: Give the measured viscosity of CCCCCl [1-chlorobutane] + CCCO .
OUTPUT: 1.729

----------
# Assay Summary: xn = mol fraction of the nth substance listed
# Cond: 288.15 K; 101.32 kPa; Liquid; x2 = 0.6
± gives the expanded uncertainty stated by the source.
Recorded Endpoint: viscosity
Field note: include the unit after the figure.

Please review the following examples before continuing.
CCCCCl [1-chlorobutane] + CCCCO: 1.196 ± 0.015 mPa·s
CCCCCl [1-chlorobutane] + CO: 0.536 ± 0.009 mPa·s
CCCCCl [1-chlorobutane] + CCO: 0.708 ± 0.01 mPa·s

Moving on to the next compound.
INPUT: Which measured viscosity value corresponds to CCCCCl [1-chlorobutane] + CCCO ?
OUTPUT: 0.965 ± 0.013 mPa·s

----------
# Assay Summary: refractive index (Na D-line) (dimensionless); xn = mol fraction of the nth substance listed
# Cond: 298.15 K; 101.32 kPa; Liquid; x2 = 0.95
Numbers after ± are expanded uncertainties.
Recorded Endpoint: refractive index

Some solved cases for reference:
CCCCCl [1-chlorobutane] + CO: 1.3342 ± 0.0006
CCCCCl [1-chlorobutane] + CCO: 1.3624 ± 0.0006
CCCCCl [1-chlorobutane] + CCCO: 1.384 ± 0.0006

Please look at the following compound next.
INPUT: Please look up its refractive index: CCCCCl [1-chlorobutane] + CCCCO
OUTPUT: 1.3974 ± 0.0006

----------
# Assay Summary: xn = mol fraction of the nth substance listed
# Cond: 308.15 K; 101.32 kPa; Liquid; x2 = 0.4
Recorded Endpoint: mass density (kg/m3)
// note: answer is a bare numeric in kg/m3

INPUT: Bench note: what mass density did CCCCCl [1-chlorobutane] + CO show?
OUTPUT: 848.4

INPUT: Item under review: CCCCCl [1-chlorobutane] + CCCO . Reported mass density?
OUTPUT: 842.9

INPUT: Sample CCCCCl [1-chlorobutane] + CCO — what was its mass density?
OUTPUT: 842.4

INPUT: Need mass density, item CCCCCl [1-chlorobutane] + CCCCO
OUTPUT: 842.2

----------
Here the recorded viscosity is given for each entry.
# Assay Summary: xn = mol fraction of the nth substance listed
# Cond: 308.15 K; 101.32 kPa; Liquid; x2 = 0.5
Hi! Could you send only the number? It should be in mPa·s, unit omitted.

The following compounds have reported results that may help.
CCCCCl [1-chlorobutane] + CCCCO: 0.676
CCCCCl [1-chlorobutane] + CCO: 0.469
CCCCCl [1-chlorobutane] + CCCO: 0.572

Let us move to another entry and its viscosity.
INPUT: // viscosity lookup, key: CCCCCl [1-chlorobutane] + CO
OUTPUT: 0.407

----------
Below, each entry is listed with its recorded viscosity.
# Assay Summary: xn = mol fraction of the nth substance listed
# Cond: 308.15 K; 101.32 kPa; Liquid; x2 = 0.6
// note: answer is a bare numeric in mPa·s

Known viscosity results, listed for orientation:
CCCCCl [1-chlorobutane] + CCCCO: 0.81
CCCCCl [1-chlorobutane] + CO: 0.416
CCCCCl [1-chlorobutane] + CCCO: 0.673

INPUT: So what's the measured viscosity for this one? CCCCCl [1-chlorobutane] + CCO
OUTPUT: 0.515

----------
# Assay Summary: xn = mol fraction of the nth substance listed
# Cond: 288.15 K; 101.32 kPa; Liquid; x2 = 0.2
Below: a set of entries, each annotated with reported viscosity.
Note: unit mPa·s is implicit; provide only the numeric part.

CCCCCl [1-chlorobutane] + CO: 0.465

INPUT: Sample CCCCCl [1-chlorobutane] + CCO — what was its viscosity?
OUTPUT: 0.5

INPUT: Sample CCCCCl [1-chlorobutane] + CCCO — what was its viscosity?
OUTPUT: 0.525

INPUT: # query: viscosity of entry CCCCCl [1-chlorobutane] + CCCCO
OUTPUT: 0.569

----------
# Assay Summary: xn = mol fraction of the nth substance listed
# Cond: 288.15 K; 101.32 kPa; Liquid; x2 = 0.7
// reported viscosity per item
Value expressed in mPa·s; do not type the unit.

INPUT: Given CCCCCl [1-chlorobutane] + CCCCO , state its recorded viscosity.
OUTPUT: 1.528

INPUT: Which viscosity value is on record for CCCCCl [1-chlorobutane] + CO ?
OUTPUT: 0.559

INPUT: Dear colleague, I am looking for the recorded viscosity of the following compound: CCCCCl [1-chlorobutane] + CCO
OUTPUT: 0.807

INPUT: Record request: viscosity value, item CCCCCl [1-chlorobutane] + CCCO
OUTPUT: 1.202

----------
# Assay Summary: refractive index (Na D-line) (dimensionless)
# Cond: 308.15 K; 101.33 kPa; Liquid
Recorded Endpoint: refractive index
I'd appreciate a reply containing only the number, no unit.

Known results for molecules:
CO [methanol]: 1.3254
CCCCO [butan-1-ol]: 1.3932

INPUT: I'd like to know its refractive index. The molecule in question is CCCCCl [1-chlorobutane]
OUTPUT: 1.3941

INPUT: # query: refractive index of entry CCO [ethanol]
OUTPUT: 1.355

INPUT: Quick one: refractive index of CCCO [propan-1-ol] ?
OUTPUT: 1.3789

----------
# Assay Summary: xn = mol fraction of the nth substance listed
# Cond: 308.15 K; 101.32 kPa; Liquid; x2 = 0.1
Numbers after ± are expanded uncertainties.
In this section, each of the compounds is paired with its reported mass density.
# output: numeric value plus its unit

Recorded mass density, per entry:
CCCCCl [1-chlorobutane] + CCCCO: 862.3 ± 0.7 kg/m3
CCCCCl [1-chlorobutane] + CO: 864.7 ± 0.7 kg/m3
CCCCCl [1-chlorobutane] + CCCO: 862.6 ± 0.7 kg/m3

We next turn to a different compound, shown below.
INPUT: Could you tell me which mass density is on file for CCCCCl [1-chlorobutane] + CCO ?
OUTPUT: 862.8 ± 0.7 kg/m3

----------
# Assay Summary: refractive index (Na D-line) (dimensionless); xn = mol fraction of the nth substance listed
# Cond: 308.15 K; 101.32 kPa; Liquid; x2 = 0.5
Recorded Endpoint: refractive index
Please state the value as a number alone, without comment.

These recorded examples may help you get a feel for the data.
CCCCCl [1-chlorobutane] + CO: 1.3728
CCCCCl [1-chlorobutane] + CCCO: 1.3869
CCCCCl [1-chlorobutane] + CCCCO: 1.3932

INPUT: What refractive index value was documented for this molecule, CCCCCl [1-chlorobutane] + CCO ?
OUTPUT: 1.3788

----------
# Assay Summary: refractive index (Na D-line) (dimensionless); xn = mol fraction of the nth substance listed
# Cond: 298.15 K; 101.32 kPa; Liquid; x2 = 0.9
Recorded Endpoint: refractive index
Write the value as a bare number.

Example entries and their recorded answers appear below.
CCCCCl [1-chlorobutane] + CO: 1.3413
CCCCCl [1-chlorobutane] + CCCO: 1.385
CCCCCl [1-chlorobutane] + CCCCO: 1.3975

INPUT: Any idea what its refractive index is? The molecule is CCCCCl [1-chlorobutane] + CCO
OUTPUT: 1.3653

----------
# Assay Summary: xn = mol fraction of the nth substance listed
# Cond: 298.15 K; 101.32 kPa; Liquid; x2 = 0.3
Recorded Endpoint: viscosity (mPa·s)
Form entry: value (mPa·s) — number only.

CCCCCl [1-chlorobutane] + CCCO: 0.511

INPUT: Need viscosity, item CCCCCl [1-chlorobutane] + CCO
OUTPUT: 0.465

INPUT: Any idea what viscosity was measured for CCCCCl [1-chlorobutane] + CCCCO ?
OUTPUT: 0.569

INPUT: Look up viscosity: CCCCCl [1-chlorobutane] + CO
OUTPUT: 0.421
